Every entry's value here was drawn from patent US20240270821A1.

Test System: human GLP1-R (SNAP-GLP-1R expressed in HEK293 cells) (human) (UniProt P43220)
Sequence (P43220 24-463): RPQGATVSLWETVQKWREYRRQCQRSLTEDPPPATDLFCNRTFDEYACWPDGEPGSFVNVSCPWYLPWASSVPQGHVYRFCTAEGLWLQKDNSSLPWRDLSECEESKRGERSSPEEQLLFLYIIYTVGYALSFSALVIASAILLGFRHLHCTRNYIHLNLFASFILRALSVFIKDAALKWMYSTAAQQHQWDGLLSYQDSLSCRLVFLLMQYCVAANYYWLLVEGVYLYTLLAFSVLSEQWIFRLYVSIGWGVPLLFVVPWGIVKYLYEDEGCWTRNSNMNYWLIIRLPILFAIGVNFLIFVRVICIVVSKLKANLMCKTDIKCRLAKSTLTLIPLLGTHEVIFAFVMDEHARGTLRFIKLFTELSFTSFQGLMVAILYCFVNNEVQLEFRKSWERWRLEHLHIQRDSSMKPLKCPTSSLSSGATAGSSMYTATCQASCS
Assay Overview: cell-based or functional assay
GLP1R Internalization EC50 listing for selected binders.
Express your answer in nM, writing the number without its unit.

Please review the entries below; each comes with its answer.
Please look up its GLP1R Internalization EC50: YXQGTFTSDFSKXLDKKAQXAFIEYLLEXGPSSGEPPPSEG (synthetic construct; SITE 2: note = 2-Aminoisobutyric Acid; SITE 13: note = alpha-methyl-leucine; SITE 17: note = Lysine is chemically modified through conjugation of the epsilon-amino group of the Lysine side chain with (2-[2-(2-Amino-ethoxy)-ethoxy]-acetyl)-(gamma-Glu)-CO-(CH2) 16-CO2H; SITE 20: n) [Example 46]
41

Fill in the blank: the reported GLP1R Internalization EC50 of YXQGTFTSDFSRXLDKKAQXAFIEYLLEXGPSSGAPPPSGS (synthetic construct; SITE 2: note = 2-Aminoisobutyric Acid; SITE 13: note = alpha-methyl-leucine; SITE 17: note = Lysine is chemically modified through conjugation of the epsilon-amino group of the Lysine side chain with (2-[2-(2-Amino-ethoxy)-ethoxy]-acetyl)-(gamma-Glu)-CO-(CH2) 16-CO2H; SITE 20: n) [Example 79] is ____.
56.6

May I ask what GLP1R Internalization EC50 has been recorded for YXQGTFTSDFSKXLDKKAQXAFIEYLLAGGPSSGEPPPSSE (synthetic construct; SITE 2: note = 2-Aminoisobutyric Acid; SITE 13: note = alpha-methyl-leucine; SITE 17: note = Lysine is chemically modified through conjugation of the epsilon-amino group of the Lysine side chain with (2-[2-(2-Amino-ethoxy)-ethoxy]-acetyl)-(gamma-Glu)-CO-(CH2) 18-CO2H; SITE 20: n) [Example 3] ?
49.2

Item YXQGTFTSDFSKXLDKKAQXAFIEYLLEXGPSSGAPPPGGS (synthetic construct; SITE 2: note = 2-Aminoisobutyric Acid; SITE 13: note = alpha-methyl-leucine; SITE 17: note = Lysine is chemically modified through conjugation of the epsilon-amino group of the Lysine side chain with (2-[2-(2-Amino-ethoxy)-ethoxy]-acetyl)-(gamma-Glu)-CO-(CH2) 18-CO2H; SITE 20: n) [Example 43] has what recorded GLP1R Internalization EC50?
58.2

Any idea what GLP1R Internalization EC50 was measured for YXQGTFTSDFSXXLDKKAQXAFIEYLLEXGPSSGAPPPGEG (synthetic construct; SITE 2: note = 2-Aminoisobutyric Acid; SITE 12: note = L-ornithine; SITE 13: note = alpha-methyl-leucine; SITE 17: note = Lysine is chemically modified through conjugation of the epsilon-amino group of the Lysine side chain with (2-[2-(2-Amino-ethoxy)-ethoxy]-acetyl)2-(gamma-Glu)) [Example 70] ?
60

Kindly consider the entry below.
GET /values?readout=GLP1R Internalization EC50&item= YXQGTFTSDFSXXLDKKAQXAFIEYLLEGGPSSGAPPPSEG (synthetic construct; SITE 2: note = 2-Aminoisobutyric Acid; SITE 12: note = L-ornithine; SITE 13: note = alpha-methyl-leucine; SITE 17: note = Lysine is chemically modified through conjugation of the epsilon-amino group of the Lysine side chain with (2-[2-(2-Amino-ethoxy)-ethoxy]-acetyl)-(gamma-Glu)) [Example 50]
30.1
